Would you kindly list pIC50 for each of these compounds?
- target_under_test: UniProtKB P53396
- Sequence (P53396 other isoform, or with tags, fused parts or gaps isoform P53396-2): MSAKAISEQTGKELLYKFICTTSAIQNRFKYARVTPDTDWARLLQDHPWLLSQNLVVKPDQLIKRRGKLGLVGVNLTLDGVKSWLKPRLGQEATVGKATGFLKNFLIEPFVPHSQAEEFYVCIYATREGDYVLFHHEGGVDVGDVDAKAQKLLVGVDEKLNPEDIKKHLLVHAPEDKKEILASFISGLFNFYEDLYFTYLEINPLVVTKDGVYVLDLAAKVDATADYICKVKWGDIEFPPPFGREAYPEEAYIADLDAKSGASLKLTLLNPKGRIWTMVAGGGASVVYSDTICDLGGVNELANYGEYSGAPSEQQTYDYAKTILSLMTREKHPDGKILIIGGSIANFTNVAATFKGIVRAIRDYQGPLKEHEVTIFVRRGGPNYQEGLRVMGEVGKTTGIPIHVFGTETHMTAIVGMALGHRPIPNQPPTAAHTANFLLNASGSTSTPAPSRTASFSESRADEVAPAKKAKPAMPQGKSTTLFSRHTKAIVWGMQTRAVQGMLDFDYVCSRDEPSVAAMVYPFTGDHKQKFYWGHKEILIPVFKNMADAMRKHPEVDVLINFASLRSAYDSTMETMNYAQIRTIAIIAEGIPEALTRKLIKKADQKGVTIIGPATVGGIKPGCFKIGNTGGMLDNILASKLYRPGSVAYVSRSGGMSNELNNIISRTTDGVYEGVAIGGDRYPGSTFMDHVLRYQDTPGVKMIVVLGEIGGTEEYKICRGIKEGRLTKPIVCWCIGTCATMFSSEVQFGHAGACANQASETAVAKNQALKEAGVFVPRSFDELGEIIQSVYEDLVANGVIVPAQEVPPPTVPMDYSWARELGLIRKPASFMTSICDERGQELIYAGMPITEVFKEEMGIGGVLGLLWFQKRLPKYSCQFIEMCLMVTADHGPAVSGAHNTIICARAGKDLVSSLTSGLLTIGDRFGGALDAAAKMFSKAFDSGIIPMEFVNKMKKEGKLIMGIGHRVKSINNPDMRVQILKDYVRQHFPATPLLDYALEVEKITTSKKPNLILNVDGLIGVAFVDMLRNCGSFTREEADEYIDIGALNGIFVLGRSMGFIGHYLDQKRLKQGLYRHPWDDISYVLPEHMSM
- assay_comment: ADP-Glo Assay
pIC50: −log10 of the molar value.

Which measured pIC50 value corresponds to O=S(=O)(NCc1nc(-c2cccc(F)c2)no1)c1cc(Cl)cc(Cl)c1O [I-168] ?
4.70 to 6.30

Another compound: O=S(=O)(Nc1cc(-c2ccccc2)c(F)cc1F)c1cc(Cl)ccc1F [I-156]
4.70 to 6.30

Note, next up: O=S(=O)(Nc1cc(-c2ccccc2)ccc1F)c1cc(Cl)cc(Cl)c1Oc1nccs1 [I-97]
4.70 to 6.30

Input COc1ccc(-c2ccccc2)cc1NS(=O)(=O)c1cc(-c2nn[nH]n2)ccc1OC [I-442]
< 4.70

Then what about the compound CS(=O)(=O)c1cc(Cl)cc(S(=O)(=O)Nc2cc(-c3ccccc3)c(F)cc2F)c1 [I-392] ?
< 4.70

Ok, now Cn1cc(Cl)cc(S(=O)(=O)Nc2cc(-c3ccccc3)ccc2F)c1=O [I-415]
< 4.70

Repeat for the following compound: O=C(O)c1c(NS(=O)(=O)c2cc(Cl)cc(Cl)c2)sc2c1CCC2 [I-341]
4.70 to 6.30

Try this compound too: O=C(O)c1ccc(-c2ccccc2)cc1NS(=O)(=O)CCc1ccccc1 [I-259]
4.70 to 6.30

Now this one: Cn1ccc(Oc2c(Cl)cc(Cl)cc2S(=O)(=O)Nc2cc(-c3ccccc3)ccc2F)n1 [I-443]
< 4.70

Try this compound too: CS(=O)(=O)NC(=O)c1ccc(F)c(NS(=O)(=O)c2cc(Cl)cc(Cl)c2O)c1 [I-423]
< 4.70

// same read-out, input: O=S(=O)(c1cc(Br)cc(Cl)c1O)N(Cc1cncs1)c1ccc(Cl)cc1 [I-514]
4.70 to 6.30
